Where do the numbers come from? From the METLIN SMRT retention time set (Domingo-Almenara et al. 2019).

experiment: gradient 5% acetonitrile 3 min, to 50% in 2 min, to 85% in 15 min, held 3 min, 100 µL/min; conditions: column: Zorbax Extend-C18 2.1 x 50 mm; eluents: water / acetonitrile, 0.1% formic acid
measuredEndpoint: RP-LC retention time (s)
Give just the numeric value; s need not be written.

# count of solved cases: 3
O=C(NC1CCCN(c2cc(N3CCCC3)ncn2)C1)c1ccoc1 (stereo not drawn)	671
Cc1ccc(N2CCC(NC(=O)Nc3ccc(F)cc3F)C2=O)cc1C (stereo not drawn)	903
CCn1cc(-c2nc(C(=O)NCc3ccc(F)cc3F)cs2)c2cccnc21	992

Request: Item under review: `O=C(CCc1c[nH]c2ccccc12)N1CCc2cc(-c3ccno3)ccc21` . Reported RP-LC retention time?
Result: 984

Request: Item under review: `Cc1ccccc1-c1nnc(CSc2ccc(NC(=O)C3CC3)cc2)o1` . Reported RP-LC retention time?
Result: 933

Request: Item under review: `Clc1ccccc1CNc1nnc(-c2nc(C3CC3)no2)c2ccccc12` . Reported RP-LC retention time?
Result: 1010

Request: Item under review: `Cc1ccc2nc(SCC(=O)N3CCCCC3)[nH]c2c1` . Reported RP-LC retention time?
Result: 590

Request: Item under review: `CCOC1CCN(C(=O)NC(C)(C)C)CC1` . Reported RP-LC retention time?
Result: 700

Request: Item under review: Cc1cccc(C)c1OCC(=O)c1ccc2c(c1)N(CCCC(=O)NCC1CCCO1)C(=O)CO2 (stereo not drawn) . Reported RP-LC retention time?
Result: 803

Request: Item under review: CCn1cc(S(=O)(=O)N2CCCCC2c2nc(-c3ccncc3)n[nH]2)cn1 (stereo not drawn) . Reported RP-LC retention time?
Result: 695

Request: Item under review: COc1ccc2c(c1)C(O)(CC(=O)c1ccc(-c3ccc(Cl)cc3)o1)C(=O)N2 (stereo not drawn) . Reported RP-LC retention time?
Result: 797

Request: Item under review: `CCc1cc(=O)n(CC(=O)NCc2ccccc2)c(N2CCOCC2)n1` . Reported RP-LC retention time?
Result: 647

Request: Item under review: CCn1cnc(S(=O)(=O)N2CCCC(C(=O)NCc3ccc(C)cc3)C2)c1 (stereo not drawn) . Reported RP-LC retention time?
Result: 803

---

experiment: gradient 5% acetonitrile 3 min, to 50% in 2 min, to 85% in 15 min, held 3 min, 100 µL/min; details: column: Zorbax Extend-C18 2.1 x 50 mm; eluents: water / acetonitrile, 0.1% formic acid
Please note: MET applies when RP-LC retention time is 800 s or greater, and NOT MET applies otherwise.

As a guide, the following entries are already answered.
COC(=O)c1ccc(NC(=O)Cn2nc3nc(N4CCCC(C)C4)ccn3c2=O)cc1 (stereo unspecified)	NOT MET
CCc1nc(-c2csc(S(=O)(=O)N3CCC(C(=O)Nc4ccc(Cl)cc4)CC3)c2)no1	MET
CC(C)NC(=O)c1ccc(OCC2CCN(C(=O)c3ccccc3)CC2)cc1	MET

Request: Entry Cc1ccc2c(c1)N(S(C)(=O)=O)CCC(C(=O)Nc1cccc(Br)c1)O2 (stereo unspecified) : is its RP-LC retention time no less than 800 s?
Result: MET

Request: Entry `Cc1nc(-c2ccc3c(c2)CCN3C(=O)c2nccc3ccccc23)cs1` : is its RP-LC retention time no less than 800 s?
Result: MET

Request: Entry `Cc1[nH]c(=O)[nH]c(=O)c1CCC(=O)N1CCC(c2nc3ccccc3o2)CC1` : is its RP-LC retention time no less than 800 s?
Result: NOT MET

Request: Entry `CCn1ccc(C(=O)N2CC(c3nc(-c4ccsc4)nn3C)C2)n1` : is its RP-LC retention time no less than 800 s?
Result: NOT MET

Request: Entry `COC(=O)c1c(NCCc2c[nH]c3ccccc23)c2cc(F)ccc2[nH]c1=O` : is its RP-LC retention time no less than 800 s?
Result: NOT MET

Request: Entry `Cc1cc(C)n(CCNC(=O)CSCc2ccccc2)n1` : is its RP-LC retention time no less than 800 s?
Result: NOT MET

---

test: gradient 5% acetonitrile 3 min, to 50% in 2 min, to 85% in 15 min, held 3 min, 100 µL/min; conditions: column: Zorbax Extend-C18 2.1 x 50 mm; eluents: water / acetonitrile, 0.1% formic acid
measuredEndpoint: RP-LC retention time (s)
Give just the numeric value; s need not be written.

Request: Item under review: CC(C)NC(=O)C1CCc2sc(C(=O)N3CCOCC3)cc2C1 (stereo unspecified) . Reported RP-LC retention time?
Result: 596

Request: Item under review: `CCS(=O)(=O)Nc1ccc2nc(N3CCN(c4cc(C)ccc4C)CC3)cc(C(=O)O)c2c1` . Reported RP-LC retention time?
Result: 607

Request: Item under review: `Cc1scc2nc(C(=O)NCc3ccc(F)cc3)nc(N(C)C)c12` . Reported RP-LC retention time?
Result: 780

Request: Item under review: CCc1onc(C)c1C1CCCN1C(=O)Nc1ccccc1OC (stereo unspecified) . Reported RP-LC retention time?
Result: 825

Request: Item under review: `Cc1cnc(C(=O)N2CCOCCNC(=O)[C@@H]3CCC[C@@H]32)cn1` . Reported RP-LC retention time?
Result: 599

Request: Item under review: `Cc1ccc(S(=O)(=O)NCCn2c(C)cnc2C2CCC2)c(C)c1` . Reported RP-LC retention time?
Result: 675

---

experiment: gradient 5% acetonitrile 3 min, to 50% in 2 min, to 85% in 15 min, held 3 min, 100 µL/min; settings: column: Zorbax Extend-C18 2.1 x 50 mm; eluents: water / acetonitrile, 0.1% formic acid
Lab note: anything with RP-LC retention time below 900 s is marked condition met; values at 900 s or higher are marked condition not met.

As a guide, the following entries are already answered.
CCC(=O)N1c2ccc(S(=O)(=O)N3CCCCC3)cc2CC1C(=O)NCc1ccc(C)cc1 (centres undefined)	condition not met
CCC(C)C(NC(=O)c1ccc(C(C)C)cc1)C(=O)Nc1nc2ccccc2[nH]1 (centres undefined)	condition met
Cc1cccc(-n2c(=O)c3c(cc(C)n3C)n(CC(=O)Nc3ccc(C(F)(F)F)cc3)c2=O)c1	condition not met

Request: Does this molecule meet the criterion RP-LC retention time < 900 s? `CCC(=O)Nc1nc(-c2ccccc2)cs1`
Result: condition met

Request: Does this molecule meet the criterion RP-LC retention time < 900 s? CC(C)CN1C(=O)c2cccn2CC1CNC(=O)c1n[nH]c(=O)c2ccccc12 (centres undefined)
Result: condition met

Request: Does this molecule meet the criterion RP-LC retention time < 900 s? `CCCn1cc(S(=O)(=O)Nc2cc(F)ccc2Cl)c2cccnc21`
Result: condition not met

---

assay: gradient 5% acetonitrile 3 min, to 50% in 2 min, to 85% in 15 min, held 3 min, 100 µL/min; conditions: column: Zorbax Extend-C18 2.1 x 50 mm; eluents: water / acetonitrile, 0.1% formic acid
Measured RP-LC retention time accompanies every entry in the list below.
Give just the numeric value; s need not be written.

# count of solved cases: 8
COc1ccc(-c2csc(NC(=O)Nc3ccc(Cl)c(Cl)c3)n2)cc1Br	1280
COc1ccc(-c2[nH]ncc2CN2CCC3(CC2)CC(C)(O)CCO3)cc1 (stereo unspecified)	588
CCOc1nc2ccccc2nc1N1CCCC(C(=O)NCc2ccccc2Cl)C1 (stereo unspecified)	1220
Cc1ccc(CN2CCC(C3CCN(S(C)(=O)=O)CC3)C2)nc1 (stereo unspecified)	580
CCC1(O)CCC12CCN(C(=O)C1CCCC1)CC2 (stereo unspecified)	773
CCN1CCN(CCNC(=O)C2CCCN(c3ncc(-c4cccc(F)c4)cn3)C2)CC1 (stereo unspecified)	632
O=C(CCc1c(-c2ccccc2)nc2ccccn12)Nc1ccc(F)cc1	674
CC1(C(=O)NCc2ccccc2)CCCN(S(=O)(=O)c2ccccc2)C1 (stereo unspecified)	883

Request: Item under review: `COc1ccc(-c2noc(C3(NC(=O)c4ccccc4OC)CCCCC3)n2)cc1` . Reported RP-LC retention time?
Result: 1210

Request: Item under review: CCCCCCCNC(=O)C1CCCN(c2ncc(-c3ccccc3)cn2)C1 (stereo unspecified) . Reported RP-LC retention time?
Result: 1260

Request: Item under review: `COc1cc(Nc2cc(C(=O)N3CCC(C)CC3)nc3ccc(C)cc23)cc(OC)c1OC` . Reported RP-LC retention time?
Result: 703

Request: Item under review: `CCOc1ccccc1CNC(=O)CN1CCN(Cc2ccc(F)cc2Cl)C1=O` . Reported RP-LC retention time?
Result: 920

Request: Item under review: `CC(=O)Nc1ccc(CCc2nc3ccc(C(=O)NCc4cccc(Br)c4)cc3[nH]2)cc1` . Reported RP-LC retention time?
Result: 669

Request: Item under review: CCCC(=O)Nc1ccc2c(c1)CN(C(=O)c1c(F)cccc1Cl)C(C(=O)N(C)C)C2 (stereo unspecified) . Reported RP-LC retention time?
Result: 727

Request: Item under review: `COc1ccc(-c2nc(Cn3c(=O)c4c(C)cc(C)nc4n(C)c3=O)c(C)o2)cc1` . Reported RP-LC retention time?
Result: 1200

Request: Item under review: CN1C(=O)c2cccn2CC1C(=O)NCc1ccco1 (stereo unspecified) . Reported RP-LC retention time?
Result: 613
